protocol.text: chemical genetic growth profiling, strain panel (AID 1159580);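 note: tested at 20 µM; growth read once vehicle control cultures reached saturation at 30 °C; 1 = growth at the plate median or of vehicle wells; lower values mean less growth of the strain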
test.settings: S. cerevisiae deletion strains, growth OD, locus YLR342W, strain FKS1, stronger effect = lower value
The campaign covered roughly 5,500 compounds. About 2,000 (36%) were called active. Inconclusive results (about 18%) are left out. The list shows a part of the results.
observation.type: normalized growth

Record request: normalized growth value, item CC(=O)O[C@H]1CCC2(C)C3=C(CCC2C1(C)C)[C@@]1(C)CC[C@@H](C(C)CCC=C(C)C)[C@]1(C)CC3 (stereo not given in full) 1.04 (inactive)

And the next one, `CN(C)C(=O)Oc1cccc([N+](C)(C)C)c1` ? 1.01 (inactive)

And the next one, CC(=O)OCC(=O)[C@@]1(O)[C@H](C)CC2C3CCC4=CC(=O)C=C[C@]4(C)[C@@]3(F)[C@@H](O)C[C@@]21C (stereo not given in full) ? 0.969 (inactive)

And the next one, `CC(C)C[C@@H](CN)CC(=O)O` ? 1.04 (inactive)

And the next one, CC(=O)O[C@H]1CCC2(C)C3=C(CCC2C1(C)C)[C@]1(C)CCC(C(C)CCC=C(C)C)[C@@]1(C)CC3 (stereo not given in full) ? 1 (inactive)
